# Test system: Hek293T
# EXPERIMENTAL PROTOCOL: Primary qHTS to identify gynecologic anti-cancer compounds using libraries of approved drugs and bioactive compounds (AID 1345084); further: on the % scale 0 is the no-effect control and ±100 the full control effect; nearly all actives have a fitted effect of over 55% in size
# CONDITION NOTES: Gynecologic cancer cell panel viability, ATPlite luminescence, 48 h, control line for the selectivity index; series mostly up to 57.5 µM
Inconclusive results are not listed. Calls of active or inactive are those of the source. The call rests on the fitted dose curve; in most records, active means well fitted cell-killing curve with a large enough effect; inconclusive means small, poorly fitted or top-dose-only effect, or effect the other way; inactive means flat fitted curve, though single readings scatter.
Respond with a class label; see y = active, n = inactive

What classification did O=C1CCC=CC1(O)C(=O)OCc1ccccc1O[C@@H]1O[C@H](CO)[C@@H](O)[C@H](O)[C@H]1O (some centres not stated) end up with in this test?
n

====

# Test system: HaCat
# EXPERIMENTAL PROTOCOL: Cytotoxic Profiling of Annotated Libraries Using Quantitative High-Throughput Screening (AID 1296008); further: on the % scale 0 is the no-effect control and ±100 the full control effect; nearly all actives have a fitted effect of over 60% in size
# CONDITION NOTES: Five cell lines viability, CellTiter-Glo ATP luminescence, 48-72 h; stronger effect = lower value
Results filed as inconclusive are left out. Activity calls are given as the source filed them. Calls follow the shape of the dose curve; as a rule, active = well fitted inhibition curve with a large enough effect; inconclusive = small, poorly fitted or top-dose-only effect; inactive = flat fitted curve, though single readings scatter.
Please respond with reported max response for every item in the list.

>  <COMPOUND>
CC1(C)CC[C@@]2(C(=O)O[C@@H]3O[C@H](CO)[C@@H](O)[C@H](O)[C@H]3O)C(C1)C1=CCC3[C@@]4(C)CC[C@@H](O[C@@H]5O[C@H](C(=O)O)[C@@H](O[C@@H]6OC[C@@H](O)[C@H](O)[C@H]6O)[C@H](O[C@@H]6OC[C@](O)(CO)[C@H]6O)[C@H]5O)C(C)(C)C4CC[C@@]3(C)[C@]1(C)C[C@H]2O (some centres undefined)

>  <max response>
4.43% (inactive)

$$$$
>  <COMPOUND>
C[C@@H]1O[C@@H](O[C@H]2[C@H](OC(=O)[C@]34CCC(C)(C)C[C@H]3C3=CCC5[C@@]6(C)C[C@H](O)[C@H](O[C@@H]7O[C@H](CO)[C@@H](O[C@H]8OC[C@](O)(CO)[C@H]8O)[C@H](O)[C@H]7O)[C@@](C)(CO)C6[C@H](O)C[C@@]5(C)[C@]3(C)C[C@H]4O)OC[C@H](O)[C@@H]2O)[C@H](O)[C@H](O)[C@H]1O[C@@H]1OC[C@@H](O)[C@H](O[C@@H]2OC[C@](O)(CO)[C@H]2O)[C@H]1O (some centres undefined)

>  <max response>
-7.37% (inactive)

$$$$
>  <COMPOUND>
C[C@]12C=C[C@@]3(CCC4[C@](C)(CO)CCC[C@@]4(C)C3CC1)C2 (some centres undefined)

>  <max response>
-20.7% (inactive)

$$$$

Switching to the query record.
Name the recorded max response for CC(C)(C)c1ccc(S(=O)(=O)Nc2ccc(Cl)cc2C(=O)c2cc[n+]([O-])cc2)cc1 .
-10.2% (inactive)
